assay: chemical genetic growth profiling, strain panel (AID 1159580);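 further: tested at 20 µM; growth read once vehicle control cultures reached saturation at 30 °C; 1 = growth at the plate median or of vehicle wells; lower values mean less growth of the strain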; conditions: S. cerevisiae deletion strains, growth OD, locus YMR307W, strain GAS1, active compounds read low
Hit rate of the full screen: of about 5,500 compounds, about 2,000 (36%) were called active. Roughly 18% stayed inconclusive and do not appear here. This is one part of the list.
Give normalized growth for every item shown.
Numbers only.

# Compound, Recorded endpoint, Endpoint value
data = [
    ("CCN(CC)CCOC(=O)c1cc(Cl)c(N)cc1OC", "normalized growth", 1),
    ("C=C[C@@](C)(O)CCC1C(=C)C[C@H](O)C2C(C)(C)CCCC12C (some centres not stated)", "normalized growth", 1.01),
    ("O=c1[nH]c(=O)c2nc3ccccc3nc2[nH]1", "normalized growth", 0.994),
    ("O=C(OCC(O)CO)c1ccccc1Nc1ccnc2cc(Cl)ccc12 (configuration not stated)", "normalized growth", 0.984),
]

Return reported normalized growth values for all items listed beneath this line.
1. Clc1ccc(C(c2ccc(Cl)cc2)C(Cl)(Cl)Cl)cc1
2. CC1CCc2cc(F)cc3c(=O)c(C(=O)O)cn1c23 (configuration not stated)
3. CCn1cc(C(=O)O)c(=O)c2cc(F)c(N3CCNC(C)C3)c(F)c21 (configuration not stated)
4. Cc1ccc(C(=O)Nc2ccc(S(=O)(=O)O)c3cc(S(=O)(=O)O)cc(S(=O)(=O)O)c23)cc1NC(=O)c1cccc(NC(=O)Nc2cccc(C(=O)Nc3cc(C(=O)Nc4ccc(S(=O)(=O)O)c5cc(S(=O)(=O)O)cc(S(=O)(=O)O)c45)ccc3C)c2)c1
5. OCc1cc(C(O)CNCCCCCCOCCCCc2ccccc2)ccc1O (configuration not stated)
6. CN1C2CCC1CC(OC(c1ccccc1)c1ccc(Cl)cc1)C2 (configuration not stated)
7. COc1ccc(C(CN(C)C)C2(O)CCCCC2)cc1 (configuration not stated)
8. Nc1cc(=O)[nH]c(N)n1

Result:
1. 0.918
2. 1.02
3. 1.01
4. 0.993
5. 0.992
6. 0.994
7. 1
8. 0.981

Provide normalized growth for all items below, preserving their order.
1. COc1ccc2c(c1)OC1(O)COc3cc(OC)c(OC)cc3C1=C2 (configuration not stated)
2. C[C@@H]1O[C@@H](O[C@H]2[C@H](Oc3cc(O)c4c(=O)cc(-c5ccc(O)cc5)oc4c3)O[C@H](CO)[C@@H](O)[C@@H]2O)[C@H](O)[C@H](O)[C@H]1O
3. OCC(O)CN1CCN(c2ccccc2)CC1 (configuration not stated)
4. O=[N+]([O-])c1cc(C(F)(F)F)c(N2CCCCC2)cc1N1CCCCC1
5. CCCCCCC(C)OC(=O)COc1cc(Cl)c(Cl)cc1Cl (configuration not stated)
6. Clc1cccc(N2CCNCC2)c1

Result:
1. 0.984
2. 1.05
3. 1.03
4. 1.02
5. 0.86
6. 0.991

Give normalized growth for each of the items listed below.
1. O=C1c2ccccc2C(=O)C1(c1ccccc1)[N+](=O)[O-]
2. CCn1cc(C(=O)O)c(=O)c2cc(F)c(N3CCNCC3)nc21
3. CN1C2CCC1CC(OC(=O)c1cc(Cl)cc(Cl)c1)C2 (configuration not stated)
4. CNCCC(Oc1ccc(C(F)(F)F)cc1)c1ccccc1 (configuration not stated)

Result:
1. 0.919
2. 1.02
3. 1
4. 1.09
